Where do these numbers come from? They come from PubChem BioAssay (NCI).

test system: SNB-19 CNS; experiment: NCI tumour cell line growth inhibition, 48 h
endpoint: TGI

INSERT INTO results (compound, target_entity, result) VALUES
  ('COc1cc2c3c(c1OC)C(=O)C=C3N(S(=O)(=O)c1ccc(C)cc1)CC2', 'SNB-19 CNS', '> 100 µM'),
  ('O=C(/C=C\n1cnc(-c2cc(C(F)(F)F)cc(C(F)(F)F)c2)n1)N1CC(F)(F)C1', 'SNB-19 CNS', '> 25 µM'),
  ('CCOc1ccc(N=Cc2ccnc3ccccc23)cc1', 'SNB-19 CNS', '> 100 µM'),
  ('COC(=O)/C(=C/c1ccc(OC)cc1)C(C(=O)O)=C1CCCCC1', 'SNB-19 CNS', '> 100 µM');

Exercise: If you can, please state the reported TGI value of COc1cc(CN(c2ccc(C)cc2)C2OC(=O)c3ccccc32)cc(OC)c1OC (stereo not given) .
Solution: > 100 µM

====

tested on: MOLT-4 leukemia; experiment: NCI tumour cell line growth inhibition, 48 h
Recorded TGI values for a group of molecules are listed next.

INSERT INTO results (molecule, target_entity, endpoint, result) VALUES
  ('CNC(=S)/C(C#N)=C(\N)N1CCCC1', 'MOLT-4 leukemia', 'TGI', '> 100 µM');

Here is another molecule to look at.
Exercise: Would you kindly share the measured TGI for COc1ccc(CCN2C(=O)CC34C=CC(CC3C2=O)O4)cc1OC (stereo unspecified) ?
Solution: > 100 µM

====

tested on: T-47D breast; test: NCI tumour cell line growth inhibition, 48 h; in the data active = GI50 below about 0.43 µM; inactive = the rest
Bench note: report the call from TRUE (active), FALSE (inactive)

Check out these entries, answers already filled in.
INSERT INTO assay_data (molecule, target_entity, group_label) VALUES
  ('COc1ccc2nc3cccc([N+](=O)[O-])c3c(NCCNCCN(C)C)c2c1', 'T-47D breast', 'FALSE'),
  ('Cc1nc(Sc2nc3ccc([N+](=O)[O-])cc3s2)sc1C', 'T-47D breast', 'FALSE'),
  ('CC1=C(C#N)C(/C=C(\Cl)c2ccc(F)cc2)C(C#N)=C(C)N1', 'T-47D breast', 'FALSE'),
  ('Cc1cn2c(/C=N/N=C(N)N)c(-c3ccncc3)nc2s1', 'T-47D breast', 'FALSE'),
  ('COc1ccc(-c2nn3ncccc3c2-c2ccnc(Nc3ccc4c(c3)OCCO4)n2)cc1', 'T-47D breast', 'FALSE');

We now examine a further molecule.
Exercise: Which result was noted for this molecule in the test: COc1ccc(-c2nsc3c2NC(=O)CC3c2cccc(Cl)c2)cc1 (configuration not stated)
Solution: FALSE

====

system: CCRF-CEM leukemia; experiment: NCI tumour cell line growth inhibition, 48 h
Collected TGI values appear next to each entry.

Reference set (3 entries):
INSERT INTO assay_data (compound, endpoint, result) VALUES
  ('C[C@H]1O[C@@H](C(C)(C)C)OC(=O)[C@@H]1C(OC(=O)c1ccccc1)c1cccc2ccccc12 (some centres undefined)', 'TGI', '> 100 µM'),
  ('COc1cc(OC)c(C2(c3c(OC(C)C)c(=O)c3=O)SCCCS2)cc1OC', 'TGI', '> 100 µM'),
  ('CCOC(=O)C#Cc1c(C(=O)OCC)nnn1[C@@H]1O[C@H](CO)[C@H]2OC3(CCCCC3)O[C@H]21', 'TGI', '4.85 µM');

Now take the following compound into account.
Exercise: I'd like to know its TGI. The compound in question is C[n+]1ccccc1/C1=c2\cc/c([nH]2)=C(\c2cccc[n+]2C)C2=N/C(=C(/c3cccc[n+]3C)C3C=CC(N3)/C(c3cccc[n+]3C)=C3/C=CC1=N3)C=C2
Solution: > 100 µM
